run_description: Probe fluorescence ratio response to oleate:BSA complex, relative to ADIFAB2 (ΔR/ΔRAD2)
Format: binding
experimental_parameters: fluorescence response (R-Ro) relative to ADIFAB2; oleate
Method: The intensity ratio (“R” value) for a given probe is determined. The ratio is calculated using the following formula: R=Fλ1/Fλ2 wherein, Fλ1, is the measured fluorescence intensities (intensity of sample with probe present minus intensity of sample without probe present) at wavelength 1 and Fλ2 is the measured fluorescence intensities (intensity of sample with probe present minus intensity of sample without probe present) at wavelength 2. […] Plates were prepared and read in two stages. […]
Below, each entry is listed alongside its reported ΔR/ΔRAD2 OA.
measurement_kind: ΔR/ΔRAD2 OA

1. L2P18H12: acrylodan-labeled rI-FABP-L72A mutein: M18 I, G31 V, F55 WT, A73 G (protein, UniProt P02693 2-132, looked up, variant M18I G31V L72A A73G, acrylodan label, acrylodan-labeled rI-FABP-L72A mutein: M18 I, G31 V, F55 WT, A73 G) Fatty acid-binding protein, …: AFDGTWKVDRNENYEKFIEKMGINVVKRKLVAHDNLKLTITQEGNKFTVKESSNFRNIDVVFELGVDFAYSAGDGTELTGTWTMEGNKLVGKFKRVDNGKELIAVREISGNELIQTYTYEGVEAKRIFKKE	1.0
2. L1P7 H4: acrylodan-labeled rI-FABP mutein: Y14 I, L38 M, L72 W, Y117 wt (protein, UniProt P02693 2-132, looked up, variant Y14I L38M L72W, acrylodan label, acrylodan-labeled rI-FABP mutein: Y14 I, L38 M, L72 W, Y117 wt) Fatty acid-binding protein, …: AFDGTWKVDRNENIEKFMEKMGINVVKRKLGAHDNLKMTITQEGNKFTVKESSNFRNIDVVFELGVDFAYSWADGTELTGTWTMEGNKLVGKFKRVDNGKELIAVREISGNELIQTYTYEGVEAKRIFKKE	−1.4
3. L72A: acrylodan-labeled rI-FABP clone with L72A (the template mutein) (protein, listed as Rattus norvegicus, acrylodan label; MUTAGEN (72)...(72) rat intestinal fatty acid binding protein with alanine substitution for leucine at position 72) AFDGTWKVDRNENYEKFMEKMGINVVKRKLGAHDNLKLTITQEGNKFTVKESSNFRNIDVVFELGVDFAYSAADGTELTGTWTMEGNKLVGKFKRVDNGKELIAVREISGNELIQTYTYEGVEAKRIFKKDRGHHHHHH	1.15
4. L2P7F4: acrylodan-labeled rI-FABP-L72A mutein: M18 V, G31 V, F55 WT, A73 I (protein, UniProt P02693 2-132, looked up, variant M18V G31V L72A A73I, acrylodan label, acrylodan-labeled rI-FABP-L72A mutein: M18 V, G31 V, F55 WT, A73 I) Fatty acid-binding protein, …: AFDGTWKVDRNENYEKFVEKMGINVVKRKLVAHDNLKLTITQEGNKFTVKESSNFRNIDVVFELGVDFAYSAIDGTELTGTWTMEGNKLVGKFKRVDNGKELIAVREISGNELIQTYTYEGVEAKRIFKKE	0.6
